target: thermolysin (TLN) (Bacillus thermoproteolyticus); construct: purchased Calbiochem (San Diego, CA, USA); assay: Enzyme inhibition kinetics, fluorogenic substrate ES005; assay type: biochemical; conditions: TLN; 100 μM compound; in words
Sequence (P00800 233-548): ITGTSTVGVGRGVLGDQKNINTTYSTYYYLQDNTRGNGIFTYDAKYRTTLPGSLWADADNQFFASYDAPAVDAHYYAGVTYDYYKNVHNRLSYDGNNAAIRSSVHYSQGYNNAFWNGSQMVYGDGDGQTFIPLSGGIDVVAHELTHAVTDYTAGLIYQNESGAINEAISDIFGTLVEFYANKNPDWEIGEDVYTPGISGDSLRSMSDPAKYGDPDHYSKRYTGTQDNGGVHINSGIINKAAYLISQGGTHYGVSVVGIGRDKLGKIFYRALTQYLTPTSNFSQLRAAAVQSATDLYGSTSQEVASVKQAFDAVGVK

compound | inhibitory effect on enzymatic activity
CC(NC(=O)OCc1ccccc1)P(=O)(O)CC(Cc1ccccc1)C(=O)O (stereo not shown) | weak or no inhibition
CC(=O)NC(CC(C)C)C(=O)CC(C)P(=O)(O)CC(Cc1ccccc1)C(=O)O (stereo not shown) | weak or no inhibition
CCOC(=O)C(CO)CP(=O)(O)C(Cc1ccccc1)NC(=O)OCc1ccccc1 (stereo not shown) | weak or no inhibition

====

target: Mag-Trypsin activated MMP-9 (MMP-9(MT)) (Homo sapiens); construct: made in house; host or cells: Sf9 and High Five insect cells; assay: Enzyme inhibition kinetics, fluorogenic substrate ES001; assay type: biochemical; conditions: rMMP-9 (Mag-trypsin activated); inhibitor 100 μM; average over 0, 15, 30 min preincubation
Sequence (P14780 107-707 limits assumed): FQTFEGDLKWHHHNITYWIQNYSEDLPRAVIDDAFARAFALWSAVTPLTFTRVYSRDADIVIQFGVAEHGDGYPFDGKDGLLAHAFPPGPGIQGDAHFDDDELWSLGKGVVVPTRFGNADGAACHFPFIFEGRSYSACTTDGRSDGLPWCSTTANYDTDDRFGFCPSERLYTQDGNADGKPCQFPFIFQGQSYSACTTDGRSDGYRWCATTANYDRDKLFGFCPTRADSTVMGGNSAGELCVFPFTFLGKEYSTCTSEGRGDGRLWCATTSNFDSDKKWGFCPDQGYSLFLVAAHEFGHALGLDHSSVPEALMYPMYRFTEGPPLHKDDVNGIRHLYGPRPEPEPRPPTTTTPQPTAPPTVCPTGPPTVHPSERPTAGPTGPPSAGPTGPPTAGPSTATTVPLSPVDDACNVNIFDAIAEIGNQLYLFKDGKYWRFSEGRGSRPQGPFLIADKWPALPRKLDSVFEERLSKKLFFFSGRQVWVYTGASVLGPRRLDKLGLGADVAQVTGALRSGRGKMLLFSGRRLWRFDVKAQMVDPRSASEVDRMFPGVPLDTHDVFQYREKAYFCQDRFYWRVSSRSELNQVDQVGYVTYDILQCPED
reported endpoint: vi/v0 Av (bar diagram figure 7)
No unit in the answer, only the number.

Prompt line: Data request, read-out vi/v0 Av (bar diagram figure 7), for NC(=O)C(Cc1c[nH]c2ccccc12)NC(=O)C(CCCc1ccccc1)CP(=O)(O)C(Cc1ccccc1)NC(=O)OCc1ccccc1 (stereo not shown) [H-2]
Response line: 0.01565

Prompt line: Thanks! And NC(=O)C(CCC(=O)O)NC(=O)C(CCC(=O)O)NC(=O)C(Cc1cc(-c2ccc(-c3cccc(Cl)c3)cc2)no1)CP(=O)(O)c1ccc(Br)cc1 (stereo not shown) [H-1] ?
Response line: 0.4755

Prompt line: Thanks! And CCOC(=O)C(CO)CP(=O)(O)C(Cc1ccccc1)NC(=O)OCc1ccccc1 (stereo not shown) [H5] ?
Response line: 0.8694

Prompt line: Thanks! And CC(NC(=O)OCc1ccccc1)P(=O)(O)CC(Cc1ccccc1)C(=O)O (stereo not shown) [H4] ?
Response line: 0.9238

Origin of values: paper PMC12316308
